Assay: qHTS Assay for Inhibitors of Hepatitis C Virus (HCV)
Details: Huh7.5.1 HCVcc-Cre infection, luciferase reporter, 44 h; series mostly up to 41.8 µM
Hit rate of the full screen: of about 340,000 compounds, about 12,000 (3.5%) were called active. Inconclusive results (about 18%) are left out. Calls follow the shape of the dose curve; as a rule, active = well fitted inhibition curve with a large enough effect; inconclusive = small, poorly fitted or top-dose-only effect, or another doubt; inactive = no such curve, though single readings can be large or run the other way. Many of the other results were omitted from the sample, so actives are more common in it than they were.
Reply using exactly one outcome from class 1 (active), class 0 (inactive)

These solved cases illustrate the format of a correct answer.
compound: OC(CNCC1CCCO1)Cn1c2ccc(Br)cc2c2cc(Br)ccc21 (stereo unspecified)
class.assignment: class 1
--
compound: O=C1NCC(c2ccccc2)(c2ccccc2)C(=O)N1
class.assignment: class 0
--
compound: COc1cccc(Oc2ccc(N)cc2)c1
class.assignment: class 0

[Q] Which outcome was entered for the compound `COc1ccccc1CNS(=O)(=O)c1cc2c3c(c1)CCC(=O)N3CCC2` in this test?
[A] class 0

[Q] I'd appreciate the recorded outcome for `CCOC(=O)c1ccccc1NC(=O)c1c(N)n(C)c(=O)[nH]c1=O` from this test.
[A] class 0

[Q] Each compound tested received a call. Report the one for Cc1cc(C)n2nc(C(=O)OC(C)C(=O)c3cc(C)c(C)cc3C)nc2n1 (stereo unspecified) .
[A] class 0

[Q] What outcome does the record of this test show for `COc1ccccc1N1CCN(C(=O)c2ccc(S(=O)(=O)N3CCCCC3)cc2)CC1` ?
[A] class 0

[Q] Short answer needed: outcome of this test for `CCCNC(=O)c1ccc(Cl)c(Cl)c1` ?
[A] class 0

[Q] Identify the outcome logged in this assay for the compound shown: `Nc1ccccc1SCc1cc([N+](=O)[O-])cc2c1OCOC2`
[A] class 0

[Q] Answer briefly: the call reported for `COc1ccc(C(=O)N2CCN(c3ncccn3)CC2)cc1S(=O)(=O)N1CCOCC1` in this assay.
[A] class 0

[Q] Status in this test for `O=C1COc2c1ccc(O)c2O` ?
[A] class 0
